Test system: Caco-2
Assay comment: cell viability relative to DMSO; higher = less toxic
Condition: 72 h; 1000 nM
cell viability for assorted compounds
Record the result as number plus unit.

| Compound | Measurement target | cell viability |
| --- | --- | --- |
| NC(=O)c1ncn([C@@H]2O[C@H](CO)[C@@H](O)[C@H]2O)c1N | Caco-2 | 92.7% |
| Cn1c(=O)n(-c2ccc(C(C)(C)C#N)cc2)c2c3cc(-c4cnc5ccccc5c4)ccc3ncc21 | Caco-2 | 40.1% |
| O=C(c1ccc(C(=O)N2CCC(N3CCCC3)CC2)c(Nc2ccccc2)c1)N1CCC(N2CCCC2)CC1 | Caco-2 | 110% |
| NCCc1cc[nH]n1 | Caco-2 | 92.6% |

**Query** Input C=CC[C@]1(O)CC[C@H]2[C@@H]3CCC4=CC(=O)CCC4=C3C=C[C@@]21C , output reported cell viability.
**Result** 107%

**Query** Input CC#CC(=O)N1CC[C@@H](n2c(=O)n(-c3ccc(Oc4ccccc4)cc3)c3c(N)ncnc32)C1 , output reported cell viability.
**Result** 73.8%

**Query** Report measured cell viability; entry is CNC(=O)c1cc(Oc2ccc(NC(=O)Nc3cc(C(C)(C)C)nn3-c3ccc4ncccc4c3)c(F)c2)ccn1
**Result** 114%

**Query** Hello, please tell me recorded cell viability for this one: Cc1coc2c1C(=O)C(=O)c1c-2ccc2c1CCCC2(C)C
**Result** 103%

**Query** Supply measured cell viability of [NH-]c1c[n+](N2CCOCC2)no1 in your reply.
**Result** 96.1%

**Query** Please indicate cell viability recorded for O=C(Nc1cccc(C(F)(F)F)c1)Nc1ccc(Br)cc1-c1nnn[nH]1
**Result** 97.8%

**Query** Specify reported cell viability for the compound shown: CN1CCN(C(c2ccccc2)c2ccccc2)CC1
**Result** 94.9%

**Query** Let me know recorded cell viability for COc1nccc(-c2c(-c3ccc(F)cc3)ncn2[C@H]2CC[C@H](O)CC2)n1 , thanks.
**Result** 88.6%

**Query** Supply cell viability value. Item: CC1=C(C(=O)O)N2C(=O)[C@@H](NC(=O)[C@H](N)c3ccc(O)cc3)[C@H]2SC1
**Result** 85.7%

**Query** Indicate the recorded cell viability value for this compound: COC(=O)[C@@H](N)CS
**Result** 99.8%

**Query** Item C1Cc2[nH]nc(-c3nn[nH]n3)c2C1 : provide cell viability
**Result** 88.9%

**Query** Supply cell viability value. Item: C[C@@]1(C(=O)O)NCCc2cc(O)c(O)cc21
**Result** 109%

**Query** Fill in cell viability for record O[C@H]([C@H](O)[C@@H]1CO1)[C@H]1CO1 [dianhydrogalactitol]
**Result** 104%

**Query** Return reported cell viability. Input compound: Cc1cc(/C=C/c2ccc3cc(N(C)C)ccc3[n+]2C)c(C)n1-c1ccccc1 [pyrvinium-pamoate]
**Result** 46.9%

---

Measured drug sensitivity score accompanies every entry in the list below.
System: HepG2
Assay comment: drug sensitivity score (DSS) for viability; higher = more toxic; extreme values may be limits of the assay
Condition: 72 h
Reply with just the number.

See these solved cases before continuing.
| Compound | Measurement target | Reported property | Reading |
| --- | --- | --- | --- |
| CC1CNc2c(cccc2S(=O)(=O)N[C@@H](CCCNC(=N)N)C(=O)N2CC[C@@H](C)C[C@@H]2C(=O)O)C1 (mixture of isomers) [argatroban] | HepG2 | drug sensitivity score | 0 |
| Cc1cc(C)cc(NC(=O)Cc2ccc(OC(C)(C)C(=O)O)cc2)c1 [efaproxiral] | HepG2 | drug sensitivity score | 0 |
| CC(=O)O[C@]1(C(C)=O)CC[C@H]2[C@@H]3C=C(C)C4=CC(=O)CC[C@@H]4[C@H]3CC[C@@]21C [nomegestrol-acetate] | HepG2 | drug sensitivity score | 0 |
| [NH-]c1c[n+](N2CCOCC2)no1 [linsidomine] | HepG2 | drug sensitivity score | 0 |
| O=C(NCCN1CCC(n2c(=O)[nH]c3ccccc32)CC1)c1cc2cc(F)ccc2[nH]1 [FIPI] | HepG2 | drug sensitivity score | 0 |
| CN1CCN(Cc2ccc(Nc3ncc(Cl)c(Nc4ccccc4S(=O)(=O)N(C)C)n3)cc2)CC1 [TP-0903] | HepG2 | drug sensitivity score | 11.2 |

**Query** Supply drug sensitivity score measured with HepG2 for O=C(O)c1cc(O)c2c(c1)C(=O)c1cccc(O)c1C2=O [rhein] .
**Result** 0.2

**Query** Write down measured drug sensitivity score (HepG2) for this compound. O=C(O)Cc1cccnc1C(=O)O [homoquinolinic-acid]
**Result** 0

---

Tested on: U2OS
Assay comment: cell viability relative to DMSO; higher = less toxic
Condition: 72 h; 1000 nM
Attribute: cell viability

| Molecule | Reported property | Reading |
| --- | --- | --- |
| COC(=O)c1c(C)[nH]c(C)c1C(=O)c1ccccc1Cc1ccccc1 | cell viability | 102% |
| CO[C@@]1(NC(=O)Cc2cccs2)C(=O)N2C(C(=O)O)=C(COC(N)=O)CS[C@@H]21 [cefoxitin] | cell viability | 102% |
| C/C(O)=C(\C#N)C(=O)Nc1cc(Br)ccc1Br [LFM-A13] | cell viability | 104% |
| C[C@@]1(c2cc(-c3cncnc3)c(F)cc2F)CCSC(N)=N1 | cell viability | 97.4% |
| CCCN(CCC)CCc1ccc(OC)c(OCCc2ccccc2)c1 [NE-100] | cell viability | 101% |

**Query** Tell me cell viability reported for Cc1cccc(-c2[nH]c(CNc3ccccc3F)nc2-c2ccc3ncnn3c2)n1 [EW-7197]
**Result** 95.5%

**Query** Please report cell viability for the following molecule: CNNCc1ccc(C(=O)NC(C)C)cc1 [procarbazine]
**Result** 98.7%

---

Test system: Caco-2
Assay comment: cell viability relative to DMSO; higher = less toxic
Condition: 72 h; 10 nM
Reported property: cell viability (%)
All answers are understood in %, so give the number only.

Here are 2 molecules together with their reported answers.
| Molecule | Measurement target | Reading unit | cell viability |
| --- | --- | --- | --- |
| CNc1cc2c(Nc3cccc(Br)c3)ncnc2cn1 | Caco-2 | % | 92.5 |
| O=C(O)c1cc(=O)c2ccccc2o1 [chromocarb] | Caco-2 | % | 109 |

**Query** Write down cell viability measured for item c1ccc(N2CCN(Cc3nc4ccccc4[nH]3)CC2)nc1 [ABT-724]
**Result** 99.8

**Query** Tell me measured cell viability for N#C/C(=C\c1cccn1S(=O)(=O)c1cccc([N+](=O)[O-])c1)S(=O)(=O)c1ccc(F)cc1 [AMZ30] please.
**Result** 99

**Query** Give a short answer stating reported cell viability for O=[N+]([O-])c1cn2c(n1)OC[C@@H](OCc1ccc(OC(F)(F)F)cc1)C2 [pretomanid] .
**Result** 100

---

System: Calu-3
Assay comment: cell viability relative to DMSO; higher = less toxic
Condition: 72 h; 1000 nM
Reported property: cell viability (%)
Record the value in %, omitting the unit from your answer.

| Molecule | cell viability, % |
| --- | --- |
| Cn1c(=O)n(-c2ccc(C(C)(C)C#N)cc2)c2c3cc(-c4cnc5ccccc5c4)ccc3ncc21 [NVP-BEZ235] | 40.6 |
| Oc1cccc2cccnc12 [oxyquinoline] | 104 |
| Cc1cc(C)cc(OCC2CNC(=O)O2)c1 (stereo not given) [metaxalone] | 100 |
| CC[C@H](CO)Nc1nc(NCc2ccc(-c3ccccn3)cc2)c2ncn(C(C)C)c2n1 [CR8-(R)] | 31.3 |
| [NH-]c1c[n+](N2CCOCC2)no1 [linsidomine] | 94.3 |

**Query** Supply recorded cell viability for O=C(NCCN1CCC(n2c(=O)[nH]c3ccccc32)CC1)c1cc2cc(F)ccc2[nH]1 [FIPI] here.
**Result** 98

**Query** Entry C/C(O)=C(\C#N)C(=O)Nc1cc(Br)ccc1Br [LFM-A13] needs its cell viability filled in; supply it.
**Result** 100

**Query** Quickly give me recorded cell viability for CCOc1cc2ncc(C#N)c(Nc3ccc(OCc4ccccn4)c(Cl)c3)c2cc1NC(=O)/C=C/CN(C)C [neratinib]
**Result** 34.9

**Query** Give recorded cell viability. O=C1CNC(=O)CN1 [piperazinedione]
**Result** 93.4

**Query** Tell me measured cell viability for O=C/C=C/c1ccccc1 [cinnamaldehyde] please.
**Result** 95.1

---

Tested on: Vero E6
Assay comment: cell viability relative to DMSO; higher = less toxic
Condition: 72 h; 1 nM
The entries below come with measured cell viability values attached.
Write the answer as a number in %, unit excluded.

| Compound | Measurement target | Reading unit | cell viability |
| --- | --- | --- | --- |
| O=C(NCCN1CCC(n2c(=O)[nH]c3ccccc32)CC1)c1cc2cc(F)ccc2[nH]1 | Vero E6 | % | 95 |
| CC(O)(C(=O)Nc1ccc(S(=O)(=O)c2ccccc2)cc1)C(F)(F)F (stereo unspecified) | Vero E6 | % | 98.4 |
| C/C(O)=C(\C#N)C(=O)Nc1cc(Br)ccc1Br | Vero E6 | % | 112 |
| O=C(CCCN1CCC2(CC1)C(=O)N(Cc1cccc(F)c1)CN2c1ccccc1)c1ccc(F)cc1 | Vero E6 | % | 103 |
| Cc1cc(C)cc(NC(=O)Cc2ccc(OC(C)(C)C(=O)O)cc2)c1 | Vero E6 | % | 98.5 |

**Query** Respond only with cell viability recorded for CC(C)N(C[C@H]1O[C@@H](n2cnc3c(N)ncnc32)[C@H](O)[C@@H]1O)[C@H]1C[C@@H](CCc2nc3cc(C(C)(C)C)ccc3[nH]2)C1
**Result** 106

**Query** Item CN1CCC(c2c[nH]c3ccc(O)cc23)CC1 : provide cell viability
**Result** 105

**Query** Please list cell viability recorded for the compound Nc1c(CC(=O)O)cccc1C(=O)c1ccc(Br)cc1
**Result** 95.4

**Query** Supply recorded cell viability for Cc1ccc(C)c(OCCCC(C)(C)C(=O)O)c1 here.
**Result** 98.4

**Query** Please list cell viability recorded for the compound CNc1cc2c(Nc3cccc(Br)c3)ncnc2cn1
**Result** 92.4

**Query** Return reported cell viability. Input compound: Cc1ccc(=O)n(-c2ccccc2)c1
**Result** 107

**Query** Supply cell viability value. Item: COc1ccc(S(=O)(=O)N2c3ccc(Cl)cc3[C@](O)(c3ccccc3Cl)[C@@H]2C(=O)N2CCC[C@H]2C(N)=O)cc1OC
**Result** 103

**Query** Write down cell viability measured for item C=CC1=C(C)c2cc3[nH]c(cc4nc(cc5[nH]c(cc1n2)c(C)c5CCC(=O)O)C(CCC(=O)O)=C4C)c(C)c3C=C
**Result** 99.8
